Biological target: Potassium voltage-gated channel subfamily KQT member 2 (Rattus norvegicus) (UniProt O88943)
Sequence (O88943 whole entry, looked up): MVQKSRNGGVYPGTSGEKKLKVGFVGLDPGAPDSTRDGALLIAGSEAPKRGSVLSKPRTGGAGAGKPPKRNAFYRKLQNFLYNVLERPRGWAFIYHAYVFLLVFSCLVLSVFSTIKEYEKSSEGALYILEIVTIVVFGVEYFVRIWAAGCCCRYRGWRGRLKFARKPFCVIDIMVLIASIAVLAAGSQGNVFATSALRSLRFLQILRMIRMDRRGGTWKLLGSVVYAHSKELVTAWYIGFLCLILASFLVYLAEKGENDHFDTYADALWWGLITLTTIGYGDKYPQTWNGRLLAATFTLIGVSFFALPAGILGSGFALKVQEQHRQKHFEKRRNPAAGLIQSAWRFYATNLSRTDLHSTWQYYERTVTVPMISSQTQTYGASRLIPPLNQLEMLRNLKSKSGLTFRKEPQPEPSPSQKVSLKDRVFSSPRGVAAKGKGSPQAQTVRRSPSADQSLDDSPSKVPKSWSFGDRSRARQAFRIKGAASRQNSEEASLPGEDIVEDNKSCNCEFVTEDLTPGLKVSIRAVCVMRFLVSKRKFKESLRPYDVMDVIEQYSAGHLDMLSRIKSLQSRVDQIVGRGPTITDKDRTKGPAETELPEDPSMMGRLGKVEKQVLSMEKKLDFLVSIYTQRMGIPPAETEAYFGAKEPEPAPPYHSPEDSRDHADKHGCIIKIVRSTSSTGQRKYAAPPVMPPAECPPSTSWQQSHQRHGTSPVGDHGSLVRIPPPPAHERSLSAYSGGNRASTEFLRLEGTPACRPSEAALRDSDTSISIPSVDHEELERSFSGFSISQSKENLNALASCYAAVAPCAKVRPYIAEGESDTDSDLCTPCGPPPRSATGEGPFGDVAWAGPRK
Test: KCNQ2 potentiation in CHO cells – cell-based, FluxOR thallium flux, counter-screen for hERG block protector project, confirmation (AID 1942);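 also: normalized value minus buffer-control mean plus three SD of buffer wells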
Settings: FluxOR thallium flux fluorescence, at 10 µM, active compounds read high
The campaign covered roughly 2,400 compounds. About 580 (24%) were called active. These entries were drawn from the full list.
VALUE TYPE: activity change, less the hit threshold

1) Cc1cccc(N(C(=O)c2csnn2)C(C(=O)NCc2ccccc2)c2ccncc2)c1 (stereo not given) = -10.4% (inactive)
2) CC(=O)NCCC(=O)N(C)CC1CCN(CCc2cccc(C(F)(F)F)c2)CC1 = -13.4% (inactive)
3) Cc1ccccc1NC1=C/C(=N\S(=O)(=O)c2ccc(C(=O)O)cc2)c2ccccc2C1=O = 10% (active)
4) COc1ccccc1/C=C1\SC(=S)N(NS(=O)(=O)c2ccc(C)cc2)C1=O = -24.5% (inactive)
5) CC(/C=C1\N=C(SCc2ccccc2Cl)SC1=O)=C\c1ccccc1 = -10.1% (inactive)
6) O=C(O)c1ccc(S(=O)(=O)/N=C2\C=C(Nc3ccccc3F)C(=O)c3ccccc32)cc1 = 3.9% (active)
7) CC(/C=C1\SC(=S)N(c2ccc(C(=O)O)cc2)C1=O)=C\c1ccccc1 = -20.4% (inactive)
8) Cc1ccc(S(=O)(=O)N2C(=O)/C(=C3\SC(=S)NC3=O)c3ccccc32)cc1 = -14.4% (inactive)
9) CC(/C=C1\SC(=S)N(NS(=O)(=O)c2ccc(C)cc2)C1=O)=C\c1ccccc1 = 8.8% (active)
10) CC(/C=C1\SC(=S)N(NS(=O)(=O)c2ccccc2)C1=O)=C\c1ccccc1 = 18.1% (active)
